// provenance: ChEMBL document CHEMBL2218924

# assayed system: Protein kinase C iota type (Homo sapiens)
# Sequence (whole entry): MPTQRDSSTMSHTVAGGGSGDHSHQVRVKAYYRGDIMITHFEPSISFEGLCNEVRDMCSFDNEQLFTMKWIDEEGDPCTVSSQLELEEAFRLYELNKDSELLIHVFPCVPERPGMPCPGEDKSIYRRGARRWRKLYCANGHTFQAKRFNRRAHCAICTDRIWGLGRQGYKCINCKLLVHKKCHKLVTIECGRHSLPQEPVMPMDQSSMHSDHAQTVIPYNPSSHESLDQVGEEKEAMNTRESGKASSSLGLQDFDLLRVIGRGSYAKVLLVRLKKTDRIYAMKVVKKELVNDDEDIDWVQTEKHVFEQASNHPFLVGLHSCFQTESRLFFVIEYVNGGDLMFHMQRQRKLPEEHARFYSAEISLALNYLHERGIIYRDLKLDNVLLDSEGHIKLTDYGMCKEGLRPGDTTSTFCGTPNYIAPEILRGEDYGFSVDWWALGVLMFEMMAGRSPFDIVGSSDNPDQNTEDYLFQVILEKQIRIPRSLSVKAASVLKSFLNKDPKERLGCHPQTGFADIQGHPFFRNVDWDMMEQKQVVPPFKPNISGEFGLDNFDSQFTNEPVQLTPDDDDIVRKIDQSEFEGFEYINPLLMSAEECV
# condition notes: at 10 µM
Binary classification by residual activity, with 90% as an inclusive lower bound for YES; all other cases are NO.

{"smiles entry": "O=C1Nc2ccc(Br)cc2/C1=C\\c1cc2c([nH]1)CCCC2", "answer label": "NO"}
{"smiles entry": "c1ccc2c(-c3ccncc3)c[nH]c2c1", "answer label": "NO"}
{"smiles entry": "Cc1ccc(NC2=CC(=O)c3sc(C)nc3C2=O)cc1", "answer label": "YES"}
{"smiles entry": "Cc1nc2cc3nc(-c4cccs4)cnc3cc2n1C", "answer label": "YES"}

Challenge: Does the molecule "Nc1ccc2ncnc(NCCc3ccc(Oc4ccccc4)cc3)c2c1" have recorded residual activity that is 90% or more?
Response given: YES

Challenge: Does the molecule "O=Nc1c(-c2c(O)[nH]c3ccccc23)[nH]c2ccccc12" have recorded residual activity that is 90% or more?
Response given: YES

Challenge: Does the molecule "CC#CC(=O)Nc1cc2c(Nc3ccc(F)c(Cl)c3)ncnc2cn1" have recorded residual activity that is 90% or more?
Response given: YES

Challenge: Does the molecule "CC(=O)c1ccc(N2CCOCC2)cc1O" have recorded residual activity that is 90% or more?
Response given: YES

Challenge: Does the molecule "Cc1cncc2cccc(S(=O)(=O)N3CCCN(C(=O)CN)C[C@H]3C)c12" have recorded residual activity that is 90% or more?
Response given: NO

Challenge: Does the molecule "CCOc1cc2ncnc(Nc3cccc(Br)c3)c2cc1OCC" have recorded residual activity that is 90% or more?
Response given: YES

Challenge: Does the molecule "COc1ccc(S(=O)(=O)N(CCO)c2ccccc2CN(C)C/C=C/c2ccc(Cl)cc2)cc1" have recorded residual activity that is 90% or more?
Response given: YES

Challenge: Does the molecule "Cc1nc(-c2ccccc2)c(-c2ccncc2)o1" have recorded residual activity that is 90% or more?
Response given: YES

Challenge: Does the molecule "Cc1cccc(-c2[nH]c(C(C)(C)C)nc2-c2ccc3c(c2)OCO3)n1" have recorded residual activity that is 90% or more?
Response given: NO
